Target: Human adrenergic α1B receptor (Homo sapiens)
Sequence (P35368 whole entry): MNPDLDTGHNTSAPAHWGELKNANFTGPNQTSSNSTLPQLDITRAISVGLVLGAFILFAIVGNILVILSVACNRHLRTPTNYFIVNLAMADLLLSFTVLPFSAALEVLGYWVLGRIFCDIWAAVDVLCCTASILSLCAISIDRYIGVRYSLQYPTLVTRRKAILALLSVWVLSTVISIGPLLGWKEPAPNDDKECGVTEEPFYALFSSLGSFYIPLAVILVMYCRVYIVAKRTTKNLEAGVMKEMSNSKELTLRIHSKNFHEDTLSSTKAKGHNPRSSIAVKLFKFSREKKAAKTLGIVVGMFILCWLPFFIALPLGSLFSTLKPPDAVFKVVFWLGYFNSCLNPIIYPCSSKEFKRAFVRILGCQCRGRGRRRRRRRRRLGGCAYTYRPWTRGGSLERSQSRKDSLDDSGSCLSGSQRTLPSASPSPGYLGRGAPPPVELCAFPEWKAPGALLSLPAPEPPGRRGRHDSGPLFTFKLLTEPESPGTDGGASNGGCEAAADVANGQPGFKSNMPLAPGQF
Experiment: β-Arrestin GPCR functional assay, adrenergic α1B (Protocol B)
Conditions: β-arrestin, antagonist vs nor-epinephrine EC80
experimentalEndpoint: pIC50
Please express pIC50 as -log10 of the molar concentration.

# input compound: Cc1ccc2c(c1)c1c(n2CC(OCC2CCC2)c2ccncc2)CCN(C)C1 (single isomer, unassigned) [59a] ; wanted: its pIC50
6.46

# input compound: Cc1ccc2c(c1)c1c(n2CC(C)(O)c2ccnc(F)c2)CCN2CCCC12 (single isomer, unassigned) [48a] ; wanted: its pIC50
7.35

# input compound: OC(Cn1c2c(c3cc(F)ccc31)C1CCCN1CC2)c1ccncc1 (single isomer, unassigned) [18b] ; wanted: its pIC50
6.45

# input compound: CC(O)(Cn1c2c(c3cc(F)ccc31)C1CCCN1CC2)c1ccncc1 (single isomer, unassigned) [31a] ; wanted: its pIC50
6.01

# input compound: Cc1ccc2c(c1)c1c(n2CC(C)(O)c2ccnc(F)c2)CCN2CCCC12 (single isomer, unassigned) [48b] ; wanted: its pIC50
6.91

# input compound: Cc1cc2c3c(n(CC(C)(O)c4ccncc4)c2cc1Cl)CCN1CCCC31 (single isomer, unassigned) [50a] ; wanted: its pIC50
7.33

# input compound: CCOC(Cn1c2c(c3cc(C)ccc31)CN(C)CC2)c1ccncc1 (single isomer, unassigned) [43a] ; wanted: its pIC50
6.17

----------
So I've got a bunch of molecules here, and I need their pIC50 values.
Biological target: Human adrenergic α2B receptor (Homo sapiens, UniProt P18089)
Assay: β-Arrestin GPCR functional assay, adrenergic α2B (Protocol B)
Format: cell-based
Conditions: β-arrestin, antagonist vs nor-epinephrine EC80; read-out: IC50 Adrenergic α2B
Please express pIC50 as -log10 of the molar concentration.

# input molecule: OC(Cn1c2c(c3cc(F)ccc31)C1CCCN1CC2)c1ccncc1 (single isomer, unassigned) [18b] ; wanted: its pIC50
7.89

# input molecule: CC(O)(Cn1c2c(c3cc(Cl)cc(F)c31)C1CCCN1CC2)c1ccncc1 (single isomer, unassigned) [52a] ; wanted: its pIC50
7.80

# input molecule: CC(O)(Cn1c2c(c3cc(Cl)cc(F)c31)C1CCCN1CC2)c1ccncc1 (single isomer, unassigned) [52b] ; wanted: its pIC50
7.31

# input molecule: Cc1cc(F)c2c(c1)c1c(n2CC(C)(O)c2ccncc2)CCN2CCCC12 (single isomer, unassigned) [81b] ; wanted: its pIC50
7.82

----------
Biological target: UniProt P08913
Sequence (P08913 1-465): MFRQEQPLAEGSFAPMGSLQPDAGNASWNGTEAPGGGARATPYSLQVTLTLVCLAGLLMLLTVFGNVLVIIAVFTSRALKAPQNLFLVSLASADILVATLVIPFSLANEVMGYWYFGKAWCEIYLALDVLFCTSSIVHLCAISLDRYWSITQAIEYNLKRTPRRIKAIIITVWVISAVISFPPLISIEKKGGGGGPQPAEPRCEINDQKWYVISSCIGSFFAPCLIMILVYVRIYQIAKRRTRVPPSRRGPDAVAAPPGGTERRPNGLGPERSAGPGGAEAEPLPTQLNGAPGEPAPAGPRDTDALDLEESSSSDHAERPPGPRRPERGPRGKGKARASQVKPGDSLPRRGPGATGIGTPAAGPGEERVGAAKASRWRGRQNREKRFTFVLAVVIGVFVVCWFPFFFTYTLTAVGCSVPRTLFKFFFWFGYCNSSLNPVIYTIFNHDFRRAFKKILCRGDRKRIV
Assay: Radioligand binding, adrenergic α2A (Protocol Group B)
Set-up: purchased Milipore (Millipore)
Conditions: 0.3 μM compound; Protocol Group B; read-out: Percentage inhibition of ligand binding, Adrenergic α2A (0.3 μM)
Classification field: enter yes for inhibition at 0.3 µM values not below 80%, no for values below it.

# check: inhibition at 0.3 µM of Cc1ccc2c(c1)c1c(n2CC(C)(O)c2ccc(C(=O)N(C)CC3CC3)nc2)CCN(C)C1 (centres unmarked) is greater than or equal to 80%
no

# check: inhibition at 0.3 µM of Cc1cc2c3c(n(CC(C)(O)c4ccncc4)c2cc1Cl)CCN1CCCC31 (single isomer, unassigned) [50a] is greater than or equal to 80%
yes

# check: inhibition at 0.3 µM of CC(O)(Cn1c2c(c3cc(F)cc(Cl)c31)C1CCCN1CC2)c1cccnc1 (single isomer, unassigned) [89a] is greater than or equal to 80%
no

# check: inhibition at 0.3 µM of Cc1ccc2c(c1)c1c(n2CC(C)(O)c2ccc(N)nc2)CCN(C)C1 (centres unmarked) is greater than or equal to 80%
no

# check: inhibition at 0.3 µM of Cc1ccc2c(c1)c1c(n2CC(O)c2ccncc2F)CCN2CCCC12 (centres unmarked) is greater than or equal to 80%
yes

# check: inhibition at 0.3 µM of Cc1cc(F)c2c(c1)c1c(n2CC(C)(O)c2ccncc2)CC2CCCN2C1 (single isomer, unassigned) [62a] is greater than or equal to 80%
no

# check: inhibition at 0.3 µM of Cc1ccc2c(c1)c1c(n2CC(O)c2cc[n+]([O-])cc2)CCN2CCCC12 (centres unmarked) is greater than or equal to 80%
no

# check: inhibition at 0.3 µM of Cc1cc(F)c2c(c1)c1c(n2CC(C)(O)c2ccncc2)CCN2CCCC12 (single isomer, unassigned) [81a] is greater than or equal to 80%
yes

----------
So I've got a bunch of compounds here, and I need their IC50 values.
Target: Human adrenergic α2B receptor (Homo sapiens)
Sequence (P18089 1-450): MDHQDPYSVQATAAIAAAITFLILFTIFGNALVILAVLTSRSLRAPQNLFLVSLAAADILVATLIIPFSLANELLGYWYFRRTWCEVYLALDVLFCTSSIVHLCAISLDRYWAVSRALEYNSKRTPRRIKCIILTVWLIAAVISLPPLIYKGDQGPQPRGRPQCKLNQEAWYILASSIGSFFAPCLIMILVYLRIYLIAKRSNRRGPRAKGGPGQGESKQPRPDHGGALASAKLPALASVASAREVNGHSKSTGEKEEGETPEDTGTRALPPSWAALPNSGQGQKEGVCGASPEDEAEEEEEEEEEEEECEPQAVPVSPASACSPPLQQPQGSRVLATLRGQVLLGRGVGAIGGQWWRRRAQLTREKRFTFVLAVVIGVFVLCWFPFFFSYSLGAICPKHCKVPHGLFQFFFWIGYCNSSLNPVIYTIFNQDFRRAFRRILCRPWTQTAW
Experiment: β-Arrestin GPCR functional assay, adrenergic α2B (Protocol B)
Assay type: cell-based
Conditions: β-arrestin, antagonist vs nor-epinephrine EC80; read-out: IC50 Adrenergic α2B
Numbers only here, please. The scale is nM.

# input compound: Cc1cc(F)cc2c3c(n(CC(C)(O)c4cccnc4)c12)CCN1CCCC31 (single isomer, unassigned) [75a] ; wanted: its IC50
17

# input compound: Cc1ccc2c(c1F)c1c(n2CC(C)(O)c2cccnc2)CCN2CCCC12 (single isomer, unassigned) [87b] ; wanted: its IC50
284

# input compound: Cc1ccc2c(c1F)c1c(n2CC(C)(O)c2cccnc2)CCN2CCCC12 (single isomer, unassigned) [87d] ; wanted: its IC50
44

# input compound: Cc1ccc2c(c1)c1c(n2CC(O)c2ccncc2F)CCN2CCCC12 (single isomer, unassigned) [14b] ; wanted: its IC50
14

# input compound: Cc1ccc2c(c1)c1c(n2CC(C)(O)c2cccnc2)CC2CCCN2C1 (single isomer, unassigned) [38b] ; wanted: its IC50
237

# input compound: CC(O)(Cn1c2c(c3cc(F)ccc31)C1CCCN1CC2)c1ccncc1 (single isomer, unassigned) [31b] ; wanted: its IC50
66

# input compound: Cc1ccc2c(c1)c1c(n2CC(OCC2CCC2)c2ccncc2)CCN2CCCC12 (single isomer, unassigned) [138a] ; wanted: its IC50
17.2

# input compound: Cc1ccc2c(c1)c1c(n2CC(C)(O)c2ccnc(F)c2)CCN2CCCC12 (single isomer, unassigned) [48a] ; wanted: its IC50
20

# input compound: Cc1cc(F)c2c(c1)c1c(n2CC(C)(O)c2cccnc2)CCN2CCCC12 (stereo not drawn) [Compound No. 79a] ; wanted: its IC50
12

# input compound: Cc1cc(F)c2c(c1)c1c(n2CC(C)(O)c2cccnc2)CCN2CCCC12 (single isomer, unassigned) [79b] ; wanted: its IC50
34

# input compound: Cc1cc(F)cc2c3c(n(CC(C)(O)c4cccnc4)c12)CCN1CCCC31 (single isomer, unassigned) [75d] ; wanted: its IC50
381

# input compound: Cc1cc(F)cc2c3c(n(CC(O)c4ccncc4)c12)CCN1CCCC31 (single isomer, unassigned) [136b] ; wanted: its IC50
68.3

# input compound: Cc1ccc2c(c1)c1c(n2CC(C)(O)c2cnc3ccccc3c2)CCN(C)C1 (single isomer, unassigned) [32a] ; wanted: its IC50
396

# input compound: `Cc1ccc2c(c1)c1c(n2C[C@@H](OC2CCCC2)c2ccncc2)CCN2CCC[C@H]12` ; wanted: its IC50
25.4

# input compound: CC(O)(Cn1c2c(c3cc(Cl)cc(F)c31)CN1CCCC1C2)c1ccncc1 (single isomer, unassigned) [86c] ; wanted: its IC50
699
